tested on: Saccharomyces cerevisiae BY4741 SeMeCo community; assay: z-score of subpopulation abundance vs DMSO median, subpopulation auxotrophic for LUM; higher = larger share of this subpopulation than in DMSO controls; settings: 10 µM; 24 h; SM minimal medium; subpopulation (auxotrophy): LUM
Counter-ions that a name gives are not always drawn.
# class assignment by measured z-score of subpopulation abundance: low (below -0.6), medium (-0.6 to below 0.6), high (0.6 or more)

Example cases with answers are listed next.
Oc1ccc(C2CNCCc3c2cc(O)c(O)c3Cl)cc1 (stereo unspecified) [Fenoldopam mesylate] : low
O=C(Nc1c(Cl)cncc1Cl)c1ccc(OC(F)F)c(OCC2CC2)c1 : medium
COC(=O)C1=C(C)NC(C)=C(C(=O)OCCN2CCN(C(c3ccccc3)c3ccccc3)CC2)C1c1cccc([N+](=O)[O-])c1 (stereo unspecified) [Manidipine] : high
CC[C@H]1OC(=O)[C@H](C)[C@@H](O[C@H]2C[C@@](C)(OC)[C@@H](O)[C@H](C)O2)[C@H](C)[C@@H](O[C@@H]2O[C@H](C)C[C@H](N(C)C)[C@H]2O)[C@](C)(O)C[C@@H](C)C(=O)[C@H](C)[C@@H](O)[C@]1(C)O : high
CCCN1CCCC[C@H]1C(=O)Nc1c(C)cccc1C [Ropivacaine] : low
O=C1c2cccc3c2[C@H](CCC3)CN1[C@@H]1CN2CCC1CC2 : medium
NC(=O)N1c2ccccc2CC(=O)c2ccccc21 [Oxcarbazepine] : medium
COc1ccc2c3c1O[C@H]1C[C@@H](O)C=C[C@@]31CCN(C)C2 [Galanthamine] : high
C[C@@H]1CN(c2c(F)c(N)c3c(=O)c(C(=O)O)cn(C4CC4)c3c2F)C[C@H](C)N1 : medium
CO[C@H]1O[C@@H]2O[C@@]3(C)CC[C@H]4[C@H](C)CC[C@@H]([C@H]1C)[C@@]24OO3 : medium

Here is the next item to consider.
Prompt: State the band of C[C@@H](O)[C@H]1C(=O)N2C(C(=O)O)=C(SCCNC=N)C[C@H]12
Completion: medium

---

test system: Saccharomyces cerevisiae BY4741 SeMeCo community; experiment: z-score of subpopulation abundance vs DMSO median, subpopulation auxotrophic for HU; higher = larger share of this subpopulation than in DMSO controls; conditions: 10 µM; 24 h; SM minimal medium; subpopulation (auxotrophy): HU
Where a name gives a salt, the structure may show the parent alone.
Give satisfied when the value for z-score of subpopulation abundance is at least 0.5. Give not satisfied when it is less.

Some solved entries appear below for comparison.
Cc1c(OCC(F)(F)F)ccnc1C[S@@+]([O-])c1nc2ccccc2[nH]1 : not satisfied
COc1cccc2c1C(=O)c1c(O)c3c(c(O)c1C2=O)C[C@@](O)(C(=O)CO)C[C@@H]3O[C@H]1C[C@H](N)[C@H](O[C@@H]2CCCCO2)[C@H](C)O1 : satisfied
COc1ccc2cc([C@H](C)C(=O)O)ccc2c1 [Naproxen Sodium] : not satisfied
CCCCc1oc2ccc(NS(C)(=O)=O)cc2c1C(=O)c1ccc(OCCCN(CCCC)CCCC)cc1 [Dronedarone HCl] : satisfied
Cc1ccc(Nc2c(F)cccc2Cl)c(CC(=O)O)c1 : not satisfied

Prompt: Confirm if z-score of subpopulation abundance reported for the molecule CC(C)[N+]1(C)[C@@H]2CC[C@H]1C[C@@H](OC(=O)C(CO)c1ccccc1)C2 (stereo partly drawn) [Ipratropium Bromide] is 0.5 or above.
Completion: not satisfied

Prompt: Check if z-score of subpopulation abundance >= 0.5 (inclusive). Item: COc1ccc(C(C)=O)c(O)c1
Completion: not satisfied

Values were extracted from the supplement of paper PMC8975748.
